Where do these numbers come from? They come from ChEMBL document CHEMBL5029175.

- Assay Notes: Volume of distribution in dog at 0.5 mg/kg, po or 0.25 mg/kg, iv
- Type: ADME, organism-based, Canis lupus familiaris
- Conditions: in vivo
Observable: Vd (L/kg)

> print(dat)
                                test.smiles  endpoint.result
1  C[C@H]1CC[C@H](Cn2c(N3CCO[C@@H]4CCC[C@H]43)nc3cc(-c4noc(=O)[nH]4)nc(-c4cncc(Cl)c4)c32)CC1             0.39

---

Measured CL free, listed per entry for reference.
- Assay Notes: Unbound clearance in dog
- Type: ADME, Canis lupus familiaris
- Conditions: in vivo
Observable: CL free (mL/min/kg)

> print(dat)
                                   molecule  value.unit  endpoint.result
1  C[C@@H]1COC[C@@H](C)N1c1nc2cc(-c3noc(=O)[nH]3)nc(-c3cncc(Cl)c3)c2n1C[C@H]1CC[C@H](C)CC1   mL/min/kg              131
2  C[C@H]1CC[C@H](Cn2c(N3CCOC[C@H]3c3ccccc3)nc3cc(-c4noc(=O)[nH]4)nc(-c4cncc(Cl)c4)c32)CC1   mL/min/kg             1607
3  C[C@H]1CC[C@H](Cn2c(N3CCC[C@H]3C(F)(F)F)nc3cc(-c4noc(=O)[nH]4)nc(-c4cncc(Cl)c4)c32)CC1   mL/min/kg             1500
4  C[C@H]1CC[C@H](Cn2c(N3CCC[C@H]3CF)nc3cc(-c4noc(=O)[nH]4)nc(-c4cncc(Cl)c4)c32)CC1   mL/min/kg              920
5  COCC(C)c1nc2cc(-c3noc(=O)[nH]3)nc(-c3cncc(Cl)c3)c2n1[C@H](C)[C@H]1CC[C@H](C)CC1 (some centres undefined)   mL/min/kg               59
6  CCOC(c1nc2cc(-c3noc(=O)[nH]3)nc(-c3cncc(Cl)c3)c2n1C[C@H]1CC[C@H](C)CC1)C1CC1 (some centres undefined)   mL/min/kg              206
7  C[C@H]1CC[C@H](Cn2c(N3CCO[C@@H]4CCC[C@H]43)nc3cc(-c4noc(=O)[nH]4)nc(-c4cncc(Cl)c4)c32)CC1   mL/min/kg              122
8  COCC(C)c1nc2cc(-c3noc(=O)[nH]3)nc(-c3cncc(Cl)c3)c2n1C[C@H]1CC[C@H](C)CC1 (some centres undefined)   mL/min/kg              171
9  CCO[C@@H](c1nc2cc(-c3noc(=O)[nH]3)nc(-c3cncc(Cl)c3)c2n1[C@H](C)[C@H]1CC[C@H](C)CC1)C1CC1   mL/min/kg              323

---

- Assay Target: Tumour suppressor p53/oncoprotein Mdm2 (Homo sapiens, UniProt Q00987)
- Sequence (P04637 whole entry, the tested form may be a part): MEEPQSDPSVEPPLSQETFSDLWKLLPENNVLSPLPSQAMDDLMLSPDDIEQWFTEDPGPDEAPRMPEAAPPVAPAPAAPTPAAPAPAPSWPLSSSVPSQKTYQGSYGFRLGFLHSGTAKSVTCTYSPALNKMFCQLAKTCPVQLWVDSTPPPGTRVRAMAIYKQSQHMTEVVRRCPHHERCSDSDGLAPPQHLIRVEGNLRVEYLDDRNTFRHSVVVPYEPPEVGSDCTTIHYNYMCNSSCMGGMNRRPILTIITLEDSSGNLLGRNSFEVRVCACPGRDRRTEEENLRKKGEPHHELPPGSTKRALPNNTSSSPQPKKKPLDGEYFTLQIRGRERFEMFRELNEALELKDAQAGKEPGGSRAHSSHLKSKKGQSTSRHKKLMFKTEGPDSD
- Sequence (Q00987 whole entry, the tested form may be a part): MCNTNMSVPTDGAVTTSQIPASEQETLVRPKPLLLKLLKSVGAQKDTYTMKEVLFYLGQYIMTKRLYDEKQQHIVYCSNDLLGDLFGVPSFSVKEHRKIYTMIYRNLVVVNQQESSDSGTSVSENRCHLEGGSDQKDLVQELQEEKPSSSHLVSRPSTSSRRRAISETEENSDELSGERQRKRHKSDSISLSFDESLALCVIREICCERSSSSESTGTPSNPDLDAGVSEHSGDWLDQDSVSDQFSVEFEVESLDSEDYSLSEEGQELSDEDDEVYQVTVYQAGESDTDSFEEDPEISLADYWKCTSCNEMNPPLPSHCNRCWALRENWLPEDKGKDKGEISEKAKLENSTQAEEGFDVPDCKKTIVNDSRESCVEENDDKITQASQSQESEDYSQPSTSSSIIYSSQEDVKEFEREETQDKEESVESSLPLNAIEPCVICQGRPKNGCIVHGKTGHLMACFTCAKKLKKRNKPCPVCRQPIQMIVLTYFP
- Assay Notes: Inhibition of N-terminal thioredoxin-His6 tagged HDM2 (17 to 125 residues)/p53 protein-protein interaction (unknown origin) incubated for 2 hrs by TR-FRET assay
pIC50: −log10 of the molar value.
// condition not met strictly below 8 in pIC50; condition met otherwise

> print(dat)
                                   compound                              assay.target        group.label
1  C[C@@H](Nc1nc(-c2nc(=O)n(C)[nH]2)nc2nc(N3CCOC[C@H]3c3ccccc3)n(C[C@H]3CC[C@H](C)CC3)c12)C1CCC1  Tumour suppressor p53/oncoprotein Mdm2 (Homo sapiens, UniProt Q00987)      condition met
2  CC(C)c1ccnc(-c2nc3nc(C(=O)O)nc(N[C@H](C)C4CCC4)c3n2C[C@H]2CC[C@@H](C)CC2)c1  Tumour suppressor p53/oncoprotein Mdm2 (Homo sapiens, UniProt Q00987)  condition not met
3  CC(C)c1ccnc(-c2nc3nc(C(=O)O)nc(N[C@H](C)C4CCC4)c3n2C[C@H]2CC[C@H](C)CC2)c1 (mixture of isomers)  Tumour suppressor p53/oncoprotein Mdm2 (Homo sapiens, UniProt Q00987)      condition met
4  Cc1cccc(-c2nc3nc(C(=O)O)nc(NCC4CC4)c3n2CC2CCCCC2)c1  Tumour suppressor p53/oncoprotein Mdm2 (Homo sapiens, UniProt Q00987)  condition not met
5  C[C@H]1CC[C@H](Cn2c(N3CCOC[C@H]3c3ccccc3)nc3nc(-c4noc(=O)[nH]4)nc(-c4cccc(Cl)c4)c32)CC1  Tumour suppressor p53/oncoprotein Mdm2 (Homo sapiens, UniProt Q00987)      condition met
